Where do these numbers come from? They come from PubChem BioAssay AID256.

System: CD2F1 mice, L1210 leukemia ip, survival T/C
method description: NCI In Vivo Anticancer Drug Screen. Data for tumor model L1210 Leukemia (intraperitoneal) in CD2F1 (CDF1) mice
details: endpoint: mean survival time; dose: 100.0 mg/kg/injection; schedule: Q04DX003 (ip); vehicle: saline; higher = longer survival
Inconclusive results and toxic doses are left out.
value type: T/C

{"molecule": "O=N/C=C/C(=N/Nc1ccc(C(=O)O)cc1)[N+](=O)[O-]", "readout value": "96 % of control"}
{"molecule": "COC(=O)C1(N)CCCC1", "readout value": "113 % of control"}
{"molecule": "CCCCNC(=O)NC(=O)CCl", "readout value": "97 % of control"}
{"molecule": "CCC(=O)c1ccc(O)c(O)c1", "readout value": "96 % of control"}
{"molecule": "CN1CC(C(=O)NC2CCCCC2)CC2c3cccc4[nH]cc(c34)CC21 (stereo not given)", "readout value": "92 % of control"}
{"molecule": "Cc1ccc(S(=O)(=O)/C=C/c2ccccc2)cc1", "readout value": "96 % of control"}
{"molecule": "NC1CONC1=O (stereo not given)", "readout value": "94 % of control"}
{"molecule": "CCCCNc1c(C(=O)N2CCCCC2)cnc2c1cnn2CC", "readout value": "97 % of control"}
{"molecule": "O=C(O)C1CC1.[Ag]", "readout value": "93 % of control"}
{"molecule": "CC(=O)NCC1CCN(C(C)=O)CC1", "readout value": "94 % of control"}
{"molecule": "CCN(CC)CCNC1CCCCC1", "readout value": "94 % of control"}
{"molecule": "c1cc(C2CCOCC2)ccn1", "readout value": "92 % of control"}
{"molecule": "N/N=C(\\N)c1ccc2ccc3cccnc3c2n1", "readout value": "89 % of control"}
{"molecule": "COC1=C2CCCC2=[N+]2CCCCC2C1 (stereo not given)", "readout value": "96 % of control"}
{"molecule": "CNC(=O)OC", "readout value": "102 % of control"}
